System: HSL
Experiment: HSL mRNA expression in adipocytes (real-time PCR)
Type: cell-based, human
Conditions: differentiating adipocytes transfected with oligomeric compound; Table 75
Description: Expression of the four hallmark genes, HSL, aP2, Glut4, and PPARγ, is also measured in adipocytes transfected with oligomeric compounds of the invention. Cells are lysed on day nine post-transfection and total RNA is harvested. The amount of total RNA in each sample is determined using a Ribogreen Assay (Invitrogen Life Technologies, Carlsbad, Calif.). […]
In the oligonucleotide strings, read from the 5' end, every base follows the letter of its sugar. An asterisk marks phosphorothioate; unmarked linkages are phosphodiester. Other units and linkages are bracketed, terminal groups are in braces. A string of capitals states the bases alone. e = 2'-O-(2-methoxyethyl) (MOE); [5mC] = 5-methylcytosine
Overview of recorded HSL mRNA for various substances

The examples below pair each entry with its known result.
341800 (antisense AAGCCCAAAAGGAGAAUUCUUUG; all 2'-MOE, all phosphorothioate, methylation of C and T or U not given here) [compound 341800]; 42 percentage of untreated control (UTC)
328122 (antisense e[5mC]*eA*eA*eA*eA*e[5mC]*eA*eT*eA*eA*eA*eA*eA*eT*e[5mC]*e[5mC]*eT*eT*eG*e[5mC]*eA) [compound 328122]; 89 percentage of untreated control (UTC)
328098 (antisense eG*eA*eG*eA*eA*eT*e[5mC]*eA*eA*eT*eA*eG*eG*eG*e[5mC]*eA*eT*eG*e[5mC]*eA*eA) [compound 328098]; 28 percentage of untreated control (UTC)

# returns recorded HSL mRNA (system: HSL) for 344614 (CCAGCAGCACCUGGGGCAGU; all 2'-MOE, all phosphorothioate, methylation of C and T or U not given here) [compound 344614] 71 percentage of untreated control (UTC)

# returns recorded HSL mRNA (system: HSL) for 327887 (antisense eG*e[5mC]*eG*eA*e[5mC]*e[5mC]*eA*eT*eG*eG*e[5mC]*eT*eG*eT*eA*eG*eA*e[5mC]*eT*eG*eT*eT*eA) [compound 327887] 53 percentage of untreated control (UTC)

----------
System: A549 cells
Assay: Cell cycle assay in A549 cells
Type: cell-based, human
Settings: A549 cells, 50 nM, 24 hours; relative to the untreated control cells in that phase
Overview of recorded % cells in cell cycle phase: S for various substances
Respond with the bare value in %.

340350 (antisense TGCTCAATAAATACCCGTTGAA; all 2'-MOE, all phosphorothioate, methylation of C not given here) [compound 340350]; 67
338769 (antisense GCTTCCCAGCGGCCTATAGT; all 2'-MOE, all phosphorothioate, methylation of C not given here) [compound 338769]; 81
338836 (antisense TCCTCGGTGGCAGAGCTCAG; all 2'-MOE, all phosphorothioate, methylation of C not given here) [compound 338836]; 89

Turning now to a further record.
Give the measured % cells in cell cycle phase: S of 338637 (antisense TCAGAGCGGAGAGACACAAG; all 2'-MOE, all phosphorothioate, methylation of C not given here) [compound 338637] . 89

----------
System: HeLa cells
Test: Cell cycle assay in HeLa cells
Format: cell-based, human
Settings: HeLa cells, 150 nM oligomeric compound, 24 hours, relative to untreated control (UTC = 100)
In the oligonucleotide strings, read from the 5' end, every base follows the letter of its sugar. An asterisk marks phosphorothioate; unmarked linkages are phosphodiester. Other units and linkages are bracketed, terminal groups are in braces. A string of capitals states the bases alone. e = 2'-O-(2-methoxyethyl) (MOE); [5mC] = 5-methylcytosine; d = 2'-deoxy (DNA)
Overview of recorded % cells in cell cycle phase G2/M for various substances
Respond with the bare value in %.

The examples below pair each entry with its known result.
338741 (antisense GCTTCACAATTAGACCATCC; all 2'-MOE, all phosphorothioate, methylation of C not given here) [compound 338741]; 112
328749 (antisense e[5mC]*eA*eG*e[5mC]*e[5mC]*dT*dG*d[5mC]*d[5mC]*dA*d[5mC]*d[5mC]*dG*d[5mC]*d[5mC]*eG*e[5mC]*eT*eT*eT) [compound 328749]; 110
338833 (antisense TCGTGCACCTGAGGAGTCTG; all 2'-MOE, all phosphorothioate, methylation of C not given here) [compound 338833]; 142
327904 (antisense eA*e[5mC]*eT*e[5mC]*eA*e[5mC]*e[5mC]*eG*eA*e[5mC]*eA*eG*e[5mC]*eG*eT*eT*eG*eA*eA*eT*eG*eT*eT) [compound 327904]; 99

Give the measured % cells in cell cycle phase G2/M of 327907 (antisense eA*eG*e[5mC]*e[5mC]*eT*eA*eT*e[5mC]*e[5mC]*eT*eG*eG*eA*eT*eT*eA*e[5mC]*eT*eT*eG*eA*eA) [compound 327907] . 111

Give the measured % cells in cell cycle phase G2/M of 328759 (antisense eG*eA*eG*eG*eG*dA*dT*dT*dG*dT*dA*dT*dG*dA*dA*e[5mC]*eA*eT*e[5mC]*eT) [compound 328759] . 168

Give the measured % cells in cell cycle phase G2/M of 328115 (antisense eA*eG*eA*eA*eG*eG*eT*eG*eG*eG*eG*eA*eG*e[5mC]*eA*eG*e[5mC]*eG*eT*e[5mC]*eA) [compound 328115] . 147

Give the measured % cells in cell cycle phase G2/M of 328724 (antisense eG*eA*e[5mC]*eA*eT*d[5mC]*dA*dT*dG*dT*dG*dA*dT*dT*dT*eG*e[5mC]*eT*e[5mC]*eA) [compound 328724] . 135

Data origin, for the record: patent US8178506B2
